# System: β-galactosidase in CMV-LacZ C2C12 myotubes
# ASSAY_PROCEDURE: CMV-LacZ secondary screen in C2C12 myotubes (β-Gal stabilizing assay)
# Type: cell-based, mouse
# PROTOCOL_CONDITIONS: 20 uM; C2C12 CMV-LacZ myotubes; fold relative to DMSO
MEASURE_NAME: CMV-LACZ in Myotubes, signal relative to DMSO
Respond using a number only.

>>> print(df.to_string())
                                   compound                             target_entity  measurement
0  NS(=O)(=O)c1ccc(NC(=O)c2ccc(CNS(=O)(=O)c3cc(C(F)(F)F)ccc3Cl)cc2)cc1  β-galactosidase in CMV-LacZ C2C12 myotubes       1.0745
1         O=C(O)CCCNC(=O)CCn1nnc2ccccc2c1=O  β-galactosidase in CMV-LacZ C2C12 myotubes       0.9145
2  CN1C(=O)N(CC(=O)N2CCN(S(=O)(=O)c3ccc(Cl)s3)CC2)C(=O)C12CCCCC2  β-galactosidase in CMV-LacZ C2C12 myotubes       1.0140
3      CC(C)(C)n1cnc2cc(NC(=O)c3ccco3)ccc21  β-galactosidase in CMV-LacZ C2C12 myotubes        1.241
4  CCOn1c(=O)c(-c2ccccc2)[n+]([O-])c2ccccc21  β-galactosidase in CMV-LacZ C2C12 myotubes       0.9659

Asked: Entry under review: CCOc1ccc2nc(Cl)sc2c1 . Reported CMV-LACZ in Myotubes, signal relative to DMSO?
Given back: 0.9635

Asked: Entry under review: CC1CCCCN1c1ncnc(N)c1[N+](=O)[O-] (stereo not drawn) . Reported CMV-LACZ in Myotubes, signal relative to DMSO?
Given back: 0.6952

Asked: Entry under review: CC1CCN(C(CNS(=O)(=O)c2ccccc2)c2ccccc2)CC1 (stereo not drawn) . Reported CMV-LACZ in Myotubes, signal relative to DMSO?
Given back: 1.0111

Asked: Entry under review: CCCCN(CC)Cc1ccc(CNC(=S)Nc2ccccc2F)o1 . Reported CMV-LACZ in Myotubes, signal relative to DMSO?
Given back: 0.9824

Entry source: patent US9980943B2
